Measured Target: TDP-43 (Homo sapiens, UniProt Q13148 1-414)
Sequence (Q13148 whole entry): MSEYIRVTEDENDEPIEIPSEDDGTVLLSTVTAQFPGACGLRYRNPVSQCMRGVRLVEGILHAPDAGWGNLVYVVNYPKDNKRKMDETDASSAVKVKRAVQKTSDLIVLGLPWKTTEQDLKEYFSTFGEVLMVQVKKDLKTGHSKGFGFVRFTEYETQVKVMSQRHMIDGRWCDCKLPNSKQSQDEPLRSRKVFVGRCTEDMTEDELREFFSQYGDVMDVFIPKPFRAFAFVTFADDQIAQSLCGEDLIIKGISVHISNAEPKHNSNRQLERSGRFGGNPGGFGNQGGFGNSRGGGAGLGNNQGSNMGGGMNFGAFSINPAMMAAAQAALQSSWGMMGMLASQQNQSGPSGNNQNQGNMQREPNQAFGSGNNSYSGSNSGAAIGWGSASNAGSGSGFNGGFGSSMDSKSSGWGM
Test Summary: RNA Bind-n-Seq with designed 260-mer pool; 25 mM Tris-HCl, 150 mM KCl, 3 mM MgCl2, BSA (printed 500 mg/mL), 20 units/mL SUPERase IN; pH not stated; 500 nM RNA pool, 1 h, 4 C; TDP-43 5, 50, 500 nM; high values mean tight binding
Conditions: protein: recombinant; tags: SBP (GST cleaved off with PreScission; pGEX-GST-SBP)
Whole data set: some 9,900 sequences, median “r (bound/input frequency ratio)” near 0.7, cut for the highest 2% near 6.5. For the sample, the highest values were picked, then their nearest neighbours and some sequences at random.
Test Readout: binding signal

Provide measured binding signal value, entry: ENSMUSG00000031028.6|Tub (ssRNA) RNA: GGGAGUUCUACAGUCCGACGAUCGCUUCGAUAUCCGCAUGCUAUAGCAGAAGAUGUGUUCACCAUGGAUUACAACUACCCACUGUGUGCACUGCAGGCCUUUGCCAUUGCUCUGUCCAGCUUUGACAGCAAGCUGGCCUGCGAGUAGAGGCCCCCCACUGCCUUUAGGUGGCCCAGUCCGGAGUGGAGCUUGCCUGCCUGCCAAGACAGCCCUGCCUACCCUCUGUUCAUAGGCCCUCUAUGGGCUUUCUGGCCUUACCAACCAGAGACUGGCUGCUCUGCCUCUGCUGCUGAAGCAGGGGGGCUCUUGCGGUCGCACUAGUGUGGAAUUCUCGGGUGUCAAGG
0.331 R (bound/input frequency ratio)
